ASSAY_TARGET: RSV A2_F (Human respiratory syncytial virus A, UniProt P03420)
Construct: expressed in transfected cells; host or cells: HEK 293T/17
Sequence (P03420 137-574): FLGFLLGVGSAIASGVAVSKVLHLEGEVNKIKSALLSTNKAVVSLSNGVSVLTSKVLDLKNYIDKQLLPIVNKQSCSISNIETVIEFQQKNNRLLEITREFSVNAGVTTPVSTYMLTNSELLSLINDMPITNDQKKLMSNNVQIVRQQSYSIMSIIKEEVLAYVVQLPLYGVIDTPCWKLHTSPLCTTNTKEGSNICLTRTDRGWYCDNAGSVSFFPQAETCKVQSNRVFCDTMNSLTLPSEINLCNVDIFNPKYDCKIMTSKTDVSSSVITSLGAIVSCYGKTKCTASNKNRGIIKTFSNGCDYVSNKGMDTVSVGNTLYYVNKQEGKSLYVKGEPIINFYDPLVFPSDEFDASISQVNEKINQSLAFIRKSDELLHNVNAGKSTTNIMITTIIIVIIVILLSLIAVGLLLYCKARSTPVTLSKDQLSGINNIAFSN
Sequence (P03420 26-109): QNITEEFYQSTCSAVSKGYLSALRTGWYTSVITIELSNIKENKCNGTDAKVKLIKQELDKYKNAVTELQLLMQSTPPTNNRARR
ASSAY_NAME: RSV fusion assay (luciferase reporter, HEK 293T/17 cells transfected with A2_F)
Format: cell-based
TEST_CONTEXT: Fusion activity IC50 μM, HEK 293T/17 cells, 24 hr
ATTRIBUTE_MEASURED: IC50
Answers without a unit are incomplete; give the number and then its unit.

Below, each entry is followed by its recorded IC50 result.
INSERT INTO measurements (molecule, readout_value) VALUES
  ('NC1CCN(c2ncc(CN3C(=O)C4(CC4)c4ccc(F)cc43)c(N[C@H]3CC[C@H](O)CC3)n2)C1 (stereo partly drawn)', '0.237 µM'),
  ('NC1CCN(c2nc(NCCCCO)ncc2CN2C(=O)C3(CC3)c3ccc(F)cc32)C1 (stereo not drawn)', '4.78 µM'),
  ('NC1CCN(c2ncc(CN3C(=O)C4(CC4)c4ccc(F)cc43)c(N3CCS(=O)(=O)CC3)n2)C1 (stereo not drawn)', '5.04 µM'),
  ('NC1CCN(c2ncc(CN3C(=O)C4(CC4)c4ccc(F)cc43)c(N3CCOCC3)n2)C1 (stereo not drawn)', '3.66 µM');

# input Bench note: what IC50 did NC1CCN(c2ncc(CN3C(=O)C4(CC4)c4ccc(F)cc43)c(NCCCCCO)n2)C1 (stereo not drawn) show?
# output 0.362 µM

# input Return reported IC50; argument: CCNc1nc(N2CCC(N)C2)ncc1CN1C(=O)C2(CC2)c2ccc(F)cc21 (stereo not drawn)
# output 1.17 µM

====

ASSAY_NAME: Liver microsomal stability, dog
Assay type: in vitro ADME
TEST_CONTEXT: male, Beagle, pooled liver microsomes, pH 7.4, 0.5 mg/mL protein, read-out: Liver Microsomal Stability (T1/2/mins) dog
ATTRIBUTE_MEASURED: half-life at 3 μM

# input Could you tell me which half-life at 3 μM is on file for NC1CCN(c2ncc(CN3C(=O)C4(CC4)c4ccc(F)cc43)c(N[C@H]3CC[C@H](O)CC3)n2)C1 (stereo partly shown) ?
# output > 4 h

====

Measured IC50 by item
ASSAY_TARGET: RSV A2_F (Human respiratory syncytial virus A, UniProt P03420)
Construct: expressed in transfected cells; host or cells: HEK 293T/17
ASSAY_NAME: RSV fusion assay (luciferase reporter, HEK 293T/17 cells transfected with A2_F)
Assay type: cell-based
TEST_CONTEXT: Fusion activity IC50 μM, HEK 293T/17 cells, 24 hr
// note: answer is a bare numeric in µM

Look over these answered cases.
INSERT INTO measurements (compound, result_unit, readout_value) VALUES
  ('NC1CCN(c2ncc(CN3C(=O)C4(CC4)c4ccc(F)cc43)c(NCCCCO)n2)C1 (stereo not shown) [Compound 4]', 'µM', 0.452),
  ('NC1CCN(c2ncc(CN3C(=O)C4(CC4)c4ccc(F)cc43)c(SCCCCO)n2)C1 (stereo not shown) [Compound 16]', 'µM', 2.79),
  ('NC1CCN(c2ncc(CN3C(=O)C4(CC4)c4ccc(F)cc43)c(NCCCO)n2)C1 (stereo not shown) [Compound 27]', 'µM', 1.09),
  ('NC1CCN(c2ncc(CN3C(=O)C4(CC4)c4ccc(F)cc43)c(NCC3CCOCC3)n2)C1 (stereo not shown) [Compound 23]', 'µM', 0.451),
  ('COCCCNc1nc(N2CCC(N)C2)ncc1CN1C(=O)C2(CC2)c2ccc(F)cc21 (stereo not shown) [Compound 11]', 'µM', 0.424);

# input Give the measured IC50 of CC(C)CNc1nc(N2CCC(CN)CC2)ncc1CN1C(=O)C2(CC2)c2ccc(F)cc21 [Compound 6] .
# output 5.22

# input Item CS(=O)(=O)CCNc1nc(N2CCC(N)C2)ncc1CN1C(=O)C2(CC2)c2ccc(F)cc21 (stereo not shown) [Compound 18] has what recorded IC50?
# output 0.885
